# CONDITION DETAILS: rat, in vivo, sc, 50 mg/kg
e = 2'-O-(2-methoxyethyl) (MOE); d = 2'-deoxy (DNA)
Would you kindly list Lymphocyte for each of these substances?
Write the value as a bare number.

Q: Lymphocyte for ISIS 413481: 5-10-5 MOE gapmer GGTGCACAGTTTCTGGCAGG (sugars from the 5' end e5 d10 e5, backbone and methylation of C not given here) ?
Ans: 12707

Q: Lymphocyte for ISIS 412224: 5-10-5 MOE gapmer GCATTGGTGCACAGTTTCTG (sugars from the 5' end e5 d10 e5, backbone and methylation of C not given here) ?
Ans: 16807

Q: Lymphocyte for ISIS 416852: MOE gapmer, nucleobases 1275 to 1318 of SEQ ID NO: 1 (Table 8) (antisense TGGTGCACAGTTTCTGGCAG; MOE gapmer, wing and gap sizes not given here) ?
Ans: 11956

Q: Lymphocyte for ISIS 416851: MOE gapmer, nucleobases 1275 to 1318 of SEQ ID NO: 1 (Table 8) (antisense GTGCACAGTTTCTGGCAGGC; MOE gapmer, wing and gap sizes not given here) ?
Ans: 9911

Q: Lymphocyte for ISIS 416863: MOE gapmer, nucleobases 1275 to 1318 of SEQ ID NO: 1 (Table 8) (antisense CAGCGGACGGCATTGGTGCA; MOE gapmer, wing and gap sizes not given here) ?
Ans: 14669

Q: Lymphocyte for ISIS 416848: MOE gapmer, nucleobases 1275 to 1318 of SEQ ID NO: 1 (Table 8) (antisense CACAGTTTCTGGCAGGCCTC; MOE gapmer, wing and gap sizes not given here) ?
Ans: 14316

Q: Lymphocyte for ISIS 416860: MOE gapmer, nucleobases 1275 to 1318 of SEQ ID NO: 1 (Table 8) (antisense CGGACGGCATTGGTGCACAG; MOE gapmer, wing and gap sizes not given here) ?
Ans: 13986

Q: Lymphocyte for ISIS 416867: MOE gapmer, nucleobases 1275 to 1318 of SEQ ID NO: 1 (Table 8) (antisense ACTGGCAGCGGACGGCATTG; MOE gapmer, wing and gap sizes not given here) ?
Ans: 10405

Q: Lymphocyte for ISIS 416859: MOE gapmer, nucleobases 1275 to 1318 of SEQ ID NO: 1 (Table 8) (antisense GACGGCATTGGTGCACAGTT; MOE gapmer, wing and gap sizes not given here) ?
Ans: 14323
